- system name: PDE4
- assay comment: PDE-Glo phosphodiesterase activity assay, PDE4
- Type: biochemical, human
- study conditions: 10 mU purified PDE4 per reaction, PDE-Glo assay

molecule	IC50 (nM)
COc1ccc(N2C(=O)C3N=NN(CC(=O)Nc4cc(C)cc(C)c4)C3C2=O)cc1OC (stereo not shown)	10
COc1ccc([C@@H]2OC[C@H]3[C@@H]2CO[C@@H]3c2ccc(O[C@@H]3O[C@H](CO)[C@@H](O)[C@H](O)[C@H]3O)c(OC)c2)cc1OC	8000
COc1cccc(CN2N=NC3C(=O)N(c4ccc(OC)c(OC)c4)C(=O)C32)c1 (stereo not shown)	60
COc1ccc(C2OCC3(O)C(c4ccc(OC)c(OC)c4)OCC23)cc1OC (stereo not shown)	90
